Each recorded value in this set is attributed to patent US20210155689A1.

target entity: T1, hFc tagged monkey LAG-3 protein (cLAG-3-hFc protein) (monkey; human)
T1 construct: Made in HEK293 cells; also called monkey LAG-3 extracellular domain protein; not shown: human IgG Fc fragment (hFc) of the pCpC vector
T1 chain: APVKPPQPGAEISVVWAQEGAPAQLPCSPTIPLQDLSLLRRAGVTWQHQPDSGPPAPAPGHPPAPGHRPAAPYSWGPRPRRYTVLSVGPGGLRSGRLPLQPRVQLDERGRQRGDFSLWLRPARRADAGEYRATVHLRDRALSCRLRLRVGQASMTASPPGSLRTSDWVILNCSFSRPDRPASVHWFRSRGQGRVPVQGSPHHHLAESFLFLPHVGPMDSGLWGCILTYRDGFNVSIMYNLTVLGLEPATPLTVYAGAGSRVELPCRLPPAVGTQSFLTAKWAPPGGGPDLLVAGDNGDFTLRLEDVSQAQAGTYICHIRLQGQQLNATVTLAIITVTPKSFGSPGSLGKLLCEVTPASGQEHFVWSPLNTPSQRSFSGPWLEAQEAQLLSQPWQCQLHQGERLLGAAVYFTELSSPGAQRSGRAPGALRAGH
measurement description: ELISA, cLAG-3-hFc coated; 0.6667 nM
recorded endpoint: OD450 (OD450)
Field: numeric (OD450). Do not append units.

Problem: What OD450 value was documented for this binder, 105F1E10 (LAG-3 mouse-human chimeric antibody) (antibody, V domains shown) VH: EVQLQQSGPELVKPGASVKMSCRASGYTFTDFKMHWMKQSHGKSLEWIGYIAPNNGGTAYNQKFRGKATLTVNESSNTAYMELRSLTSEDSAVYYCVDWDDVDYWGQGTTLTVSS VL: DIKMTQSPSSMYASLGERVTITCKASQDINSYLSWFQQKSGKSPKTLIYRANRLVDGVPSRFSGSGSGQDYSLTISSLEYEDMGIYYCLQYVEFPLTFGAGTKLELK ?
Result: 3.38

Problem: Request: 409B11E12 (LAG-3 mouse-human chimeric antibody) (antibody, V domains shown) VH: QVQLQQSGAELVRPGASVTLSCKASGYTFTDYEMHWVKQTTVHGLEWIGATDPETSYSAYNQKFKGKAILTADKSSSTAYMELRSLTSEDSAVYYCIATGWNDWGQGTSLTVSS VL: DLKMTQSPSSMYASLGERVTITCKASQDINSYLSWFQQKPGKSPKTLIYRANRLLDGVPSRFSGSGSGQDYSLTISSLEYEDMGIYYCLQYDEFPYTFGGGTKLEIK
Result: 3.36

Problem: Request: 405B8H3 (LAG-3 mouse-human chimeric antibody) (antibody, V domains shown, also called mouse-human chimeric antibody 405B8H3) VH: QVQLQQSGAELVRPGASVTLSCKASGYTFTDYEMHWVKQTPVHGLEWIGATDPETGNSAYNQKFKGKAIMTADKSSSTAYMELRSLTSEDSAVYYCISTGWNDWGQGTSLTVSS VL: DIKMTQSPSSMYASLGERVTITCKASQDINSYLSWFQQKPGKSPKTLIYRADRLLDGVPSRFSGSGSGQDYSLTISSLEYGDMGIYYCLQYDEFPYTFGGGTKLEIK
Result: 3.39

Problem: Request: 409D4E10 (LAG-3 mouse-human chimeric antibody) (antibody, V domains shown) VH: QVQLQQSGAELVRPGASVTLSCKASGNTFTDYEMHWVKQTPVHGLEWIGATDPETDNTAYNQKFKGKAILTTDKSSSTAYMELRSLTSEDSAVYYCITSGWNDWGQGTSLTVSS VL: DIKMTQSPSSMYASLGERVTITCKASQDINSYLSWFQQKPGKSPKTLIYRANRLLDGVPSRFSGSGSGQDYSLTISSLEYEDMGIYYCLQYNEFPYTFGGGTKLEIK
Result: 3.78
